- ASSAY OVERVIEW: gradient 5% acetonitrile 3 min, to 50% in 2 min, to 85% in 15 min, held 3 min, 100 µL/min
- EXPERIMENTAL CONDITIONS: column: Zorbax Extend-C18 2.1 x 50 mm; eluents: water / acetonitrile, 0.1% formic acid
MEASURE: RP-LC retention time (s)

RP-LC retention time for O=C(c1ccc(Cl)cc1)N1CCN(C(=O)c2nnn3c2COC(c2ccccc2)C3)CC1 (stereo not drawn) is 888

Entry O=C(NCc1ccccc1)c1cn(-c2ccc(-c3nc(C4CC4)no3)cn2)cn1 ; RP-LC retention time = 915

Value of RP-LC retention time reported for the molecule CS(=O)(=O)Nc1ccc(-c2noc(CN3C(=O)COc4ccc(Cl)cc43)n2)cc1 is 879

----------
- ASSAY OVERVIEW: gradient 5% acetonitrile 3 min, to 50% in 2 min, to 85% in 15 min, held 3 min, 100 µL/min
- EXPERIMENTAL CONDITIONS: column: Zorbax Extend-C18 2.1 x 50 mm; eluents: water / acetonitrile, 0.1% formic acid
MEASURE: RP-LC retention time (s)

Looking up O=C(Cn1c(=O)c2cccn2c2ccc(F)cc21)NC1CCCC1 , I see its RP-LC retention time listed as 800

# molecule Cc1ccc(CCNC(=O)c2cc3n(n2)CC(C)(C(=O)NCc2ccc(F)cc2)N(C)C3=O)cc1 (centres undefined) ; its RP-LC retention time = 828

1 = CCOC(=O)c1cc(S(=O)(=O)N2CCCC2C(=O)N(Cc2ccco2)C2CCCC2)cn1C (centres undefined)
2 = Cc1cnc(C2CN(Cc3cccc(F)c3)C2)n1Cc1ccccc1
Request: Consider entries 1 and 2 . Which has the numerically lower RP-LC retention time? Write down the label attached to your selection.
Result: 2

----------
- ASSAY OVERVIEW: gradient 5% acetonitrile 3 min, to 50% in 2 min, to 85% in 15 min, held 3 min, 100 µL/min
- EXPERIMENTAL CONDITIONS: column: Zorbax Extend-C18 2.1 x 50 mm; eluents: water / acetonitrile, 0.1% formic acid
MEASURE: RP-LC retention time (s)

Documented RP-LC retention time of CC1CC(=O)c2cnc(N3CCN(c4ncccn4)CC3)nc2C1 (centres undefined) : 798

// RP-LC retention time value for Cc1[nH]ncc1CNC(=O)C1CCN(C(=O)c2ncn3c2COC(c2ccc(F)cc2)C3)CC1 (centres undefined) : 626

What the record says about COCc1nc(C2CCN(C(=O)Nc3ccc4c(c3)OCCO4)C2)no1 (centres undefined) : RP-LC retention time is 662

I = O=C(Cc1csc(NC(=O)c2ccc[nH]c2=O)n1)NCc1cccs1
II = CCCn1cc(S(=O)(=O)Nc2cc(F)ccc2C)c2cccnc21
Request: Hi! Which is lower in terms of RP-LC retention time, the first one I or the second one II ? # respond with the chosen item's label
Result: I
(I: 626 s, II: 926 s)

----------
- ASSAY OVERVIEW: gradient 5% acetonitrile 3 min, to 50% in 2 min, to 85% in 15 min, held 3 min, 100 µL/min
- EXPERIMENTAL CONDITIONS: column: Zorbax Extend-C18 2.1 x 50 mm; eluents: water / acetonitrile, 0.1% formic acid
MEASURE: RP-LC retention time (s)

Lookup result for CC1=C(c2ccc(Cl)cc2)S(=O)(=O)N=C1N1CCCN(C(=O)c2cccnc2)CC1 ; measured RP-LC retention time: 701

a = COc1cc(NC(=O)CCc2c(C)nn3cnnc3c2C)cc(OC)c1
b = COc1ccc(C2C(=O)N(C3CCC(C)CC3)CC(=O)N2Cc2cccs2)cc1OC (stereo not drawn)
Request: Given the listed records, identify the one among a and b with higher RP-LC retention time. Kindly state the label of the option you pick.
Result: b
